I'd appreciate it if you could supply EC50 values for the items below.
Target: T1, human CD19 on CD19(+) NALM6 acute lymphoid leukemia cells (UniProt P15391 20-556)
T1 chain: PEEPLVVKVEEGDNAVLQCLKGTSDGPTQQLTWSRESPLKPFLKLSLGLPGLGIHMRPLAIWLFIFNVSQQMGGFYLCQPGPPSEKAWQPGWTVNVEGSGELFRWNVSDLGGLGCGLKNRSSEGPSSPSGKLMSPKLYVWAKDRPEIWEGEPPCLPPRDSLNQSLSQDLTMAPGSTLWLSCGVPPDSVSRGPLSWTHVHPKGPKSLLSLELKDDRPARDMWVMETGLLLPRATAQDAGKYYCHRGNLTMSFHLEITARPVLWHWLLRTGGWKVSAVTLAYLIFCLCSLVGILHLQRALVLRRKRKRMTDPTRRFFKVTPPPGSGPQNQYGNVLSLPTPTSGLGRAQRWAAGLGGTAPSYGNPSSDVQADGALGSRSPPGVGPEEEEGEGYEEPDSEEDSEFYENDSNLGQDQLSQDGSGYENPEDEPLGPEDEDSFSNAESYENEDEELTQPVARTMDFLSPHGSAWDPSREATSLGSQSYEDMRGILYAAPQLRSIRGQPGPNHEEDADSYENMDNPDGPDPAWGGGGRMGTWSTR
Experiment: FACS
One number for each entry, in µg/mL.

# count of solved cases: 3
L2+H8b (antibody, V domains shown) VH: QVQLQESGPGLVKPSETLSVTCTVSGVSLPDYGVSWIRQPPGKGLEWIGVIWGSETTYYNPSLKSRLTISKDTSKNQFSLKLSSVTAADTAVYYCAKHYYYGGSYAMDYWGQGTSVTVSS VL: DIQMTQSPSSLSASVGDRVTITCQASQDISKYLNWYQQKPGKAVKLLIYHTSRLHSGVPSRFSGSGSGTDYTLTISSLQPEDIATYFCQQGNTLPYTFGGGTKLEIT    0.1
L1+H2b (antibody, V domains shown) VH: QVQLQESGPGLVKPSETLSLTCTVSGVSLPDYGVSWIRQPPGKGLEWLGVIWGSETTNYNPSLKSRVTISKDTSKNQFSLKLSSLTAADTAVYYCAKHYYYGGSYAMDYWGQGTSVTVSS VL: DIQMTQSPSSLSASVGDRVTITCRASQDISKYLNWYQQKPGKAVKLLIYHTSRLHTGVPSRFSGSGSGTDYTLTISSLQPEDIATYFCQQGNTLPYTFGGGTKLEIT    0.23
L2+H4 (antibody, V domains shown) VH: QVQLQESGPGLVKPSETLSLTCTVSGVSLPDYGVSWIRQPPGKGLEWIGVIWGSETTNYNPSLKSRVTISVDNSKNQFSLKLSSLTAADTAVYYCAKHYYYGGSYAMDYWGQGTSVTVSS VL: DIQMTQSPSSLSASVGDRVTITCQASQDISKYLNWYQQKPGKAVKLLIYHTSRLHSGVPSRFSGSGSGTDYTLTISSLQPEDIATYFCQQGNTLPYTFGGGTKLEIT    0.27

For each entry beneath this line, provide reported EC50.
1. L2+H2b (antibody, V domains shown) VH: QVQLQESGPGLVKPSETLSLTCTVSGVSLPDYGVSWIRQPPGKGLEWLGVIWGSETTNYNPSLKSRVTISKDTSKNQFSLKLSSLTAADTAVYYCAKHYYYGGSYAMDYWGQGTSVTVSS VL: DIQMTQSPSSLSASVGDRVTITCQASQDISKYLNWYQQKPGKAVKLLIYHTSRLHSGVPSRFSGSGSGTDYTLTISSLQPEDIATYFCQQGNTLPYTFGGGTKLEIT
2. L2+H3 (antibody, V domains shown) VH: QVQLQESGPGLVKPSETLSLTCTVSGVSLPDYGVSWIRQPPGKGLEWIGVIWGSETTNYNPSLKSRLTISVDTSKNQFSLKMSSVTAADTAVYYCAKHYYYGGSYAMDYWGQGTSVTVSS VL: DIQMTQSPSSLSASVGDRVTITCQASQDISKYLNWYQQKPGKAVKLLIYHTSRLHSGVPSRFSGSGSGTDYTLTISSLQPEDIATYFCQQGNTLPYTFGGGTKLEIT

1. 0.17
2. 0.41
